tgt: T1, human PD-L1 (human, UniProt Q9NZQ7 19-239, limits assumed)
T1 construct: also called Hu PD-L1; hPD-L1
protocol_notes: cell binding assay, inhibition of Hu PD-L1/PD-1 binding
Positions of bridges follow the written chain, without caps; N, C: chain ends. Non-standard residues stand in square brackets, D forms with d. NMeNle = CCCC[C@H](NC)C(=O)O; NMeA = CN[C@@H](C)C(=O)O; Sar = CNCC(=O)O
Below is a list of entries, each paired with its recorded pIC50 value.
Would you please state pIC50, meaning minus log10 of the concentration in mol/L, as a bare number?

Exercise: Fill in: pIC50 of {CH2CO}-F[NMeA]NPHL[Sar]WSW[NMeNle][NMeNle]RC-NH2 (thioether N-14; SMILES CCCC[C@H]1C(=O)N(C)[C@@H](CCCC)C(=O)N[C@@H](CCCNC(=N)N)C(=O)N[C@H](C(N)=O)CSCC(=O)N[C@@H](Cc2ccccc2)C(=O)N(C)[C@@H](C)C(=O)N[C@@H](CC(N)=O)C(=O)N2CCC[C@H]2C(=O)N[C@@H](Cc2c[nH]cn2)C(=O)N[C@@H](CC(C)C)C(=O)N(C)CC(=O)N[C@@H](Cc2c[nH]c3ccccc23)C(=O)N[C@@H](CO)C(=O)N[C@@H](Cc2c[nH]c3ccccc23)C(=O)N1C, macrocyclic peptide, Formula I series; also called Compound 24) [Compound No. 24] is ___
Solution: 8.10

Exercise: Try this binder next: {CH2CO}-F[NMeA]NPHL[Sar]WSI[NMeNle][NMeNle]RCG-NH2 (thioether N-14; SMILES CCCC[C@H]1C(=O)N(C)[C@@H](CCCC)C(=O)N[C@@H](CCCNC(=N)N)C(=O)N[C@H](C(=O)NCC(N)=O)CSCC(=O)N[C@@H](Cc2ccccc2)C(=O)N(C)[C@@H](C)C(=O)N[C@@H](CC(N)=O)C(=O)N2CCC[C@H]2C(=O)N[C@@H](Cc2c[nH]cn2)C(=O)N[C@@H](CC(C)C)C(=O)N(C)CC(=O)N[C@@H](Cc2c[nH]c3ccccc23)C(=O)N[C@@H](CO)C(=O)N[C@@H]([C@@H](C)CC)C(=O)N1C, macrocyclic peptide, Formula I series; also called Compound 62) [Compound No. 62]
Solution: 5.47

Value source: patent US20140294898A1
